Biological target: Glutamate receptor ionotropic, AMPA (Rattus norvegicus, UniProt P19490+P19491+P19492+P19493)
Assay: Binding affinity against Ionotropic glutamate receptor AMPA using [3H]AMPA 19755 radioligand
Type: protein-complex assay
pIC50: −log10 of the molar value.
Label criterion met when pIC50 is at or above 5; anything below gets criterion not met.

1. O=C(O)[C@@H]1C[C@H]2C[C@@H](CS(=O)(=O)c3nnc[nH]3)CC[C@H]2CN1 (stereo in doubt; (-)36): criterion met

Is pIC50 for `CCOC(=O)[C@@H]1C[C@H]2C[C@@H](CCP(=O)(OCC)OCC)CC[C@H]2CN1C(=O)OC` at or above 5?
criterion not met

Is pIC50 for `CCOC(=O)[C@@H]1C[C@H]2C[C@@H](CCC(=O)NS(=O)(=O)c3ccccc3)CC[C@H]2CN1C(=O)OC` at or above 5?
criterion not met

Is pIC50 for `O=C(O)[C@H]1C[C@@H]2C[C@H](CS(=O)(=O)c3nc[nH]n3)CC[C@@H]2CN1` at or above 5?
criterion not met

Is pIC50 for `O=C(O)CC[C@H]1CC[C@H]2CN[C@H](C(=O)O)C[C@H]2C1` at or above 5?
criterion not met

* * *

Molecular target: Glutamate receptor ionotropic, AMPA (Rattus norvegicus, UniProt P19490+P19491+P19492+P19493)
Test: Binding affinity against Ionotropic glutamate receptor AMPA using [3H]AMPA 19755 radioligand
Type: protein-complex assay
measured_parameter: IC50

1) O=C(O)[C@H]1C[C@@H]2C[C@H](CCc3nnn[nH]3)CC[C@@H]2CN1: > 100 µM
2) O=C(O)[C@@H]1C[C@H]2C[C@@H](CCc3nn[nH]n3)CC[C@H]2CN1 [TEZAMPANEL ANHYDROUS]: 14 µM

Query molecule follows.
Please give the measured IC50 for this molecule: `O=C(O)[C@@H]1C[C@H]2C[C@H](CCc3cc(O)no3)CC[C@H]2CN1`
> 100 µM

* * *

Target: Glutamate receptor ionotropic, AMPA (Rattus norvegicus, UniProt P19490+P19491+P19492+P19493)
Assay: Binding affinity against Ionotropic glutamate receptor AMPA using [3H]AMPA 19755 radioligand
Type: protein-complex assay
pIC50: −log10 of the molar value.
Label MET when pIC50 is at or above 5; anything below gets NOT MET.

Before answering, review these 5 worked examples.
1) O=C(O)[C@@H]1C[C@H]2C[C@@H](CSc3nn[nH]n3)CC[C@H]2CN1: MET
2) O=C(O)CC[C@@H]1CC[C@H]2CN[C@H](C(=O)O)C[C@H]2C1: NOT MET
3) O=C(O)[C@@H]1C[C@H]2C[C@H](CCc3nnn[nH]3)CC[C@H]2CN1 (stereo in doubt; (+)49): NOT MET
4) O=C(O)[C@@H]1C[C@H]2C[C@@H](CSc3nn[nH]n3)CC[C@H]2CN1 (racemic): MET
5) O=C(O)[C@@H]1C[C@H]2C[C@H](CCP(=O)(O)O)CC[C@H]2CN1: NOT MET

Is pIC50 for O=C(O)[C@@H]1C[C@H]2C[C@H](CSc3nn[nH]n3)CC[C@H]2CN1 (stereo in doubt; (-)28) at or above 5?
NOT MET

Is pIC50 for `CCOC(=O)[C@@H]1C[C@H]2C[C@@H](CCC(=O)NS(C)(=O)=O)CC[C@H]2CN1C(=O)OC` at or above 5?
NOT MET

Is pIC50 for `O=C(O)[C@@H]1C[C@H]2C[C@H](CCS(=O)(=O)O)CC[C@H]2CN1` at or above 5?
NOT MET
